Listed below: IC50 values for each entry.
Target: Human ATX protein (Homo sapiens)
Construct: made in house
Experiment: ATX biochemical FRET assay with FS-3 substrate
Details: FRET substrate FS-3 2 μM, ATX 1.0 μg/mL, 30 minutes pre-incubation, 2 hours at room temperature; read-out: IC50
measured-property: IC50

INSERT INTO assay_data (compound, target_of_assay, measured_property, result) VALUES
  ('CC[C@H]1CC[C@@H](Oc2ccc3ccc(C(C)N[C@H]4C[C@@H](C(=O)O)C4(C)C)cc3c2C(F)(F)F)CC1 (some centres unmarked)', 'Human ATX protein (Homo sapiens)', 'IC50', '≤ 100 nM'),
  ('CC(N[C@H]1C[C@@H](C(=O)O)C1)c1ccc2ccc(O[C@H]3CC[C@@H](C)CC3)c(C(F)(F)F)c2c1 (some centres unmarked)', 'Human ATX protein (Homo sapiens)', 'IC50', '≤ 500 nM'),
  ('CC(C)(C)[C@H]1CC[C@H](Nc2cc3cc(C(=O)N[C@H]4CC[C@@H](C(=O)O)CC4)ccc3cn2)CC1', 'Human ATX protein (Homo sapiens)', 'IC50', '≤ 100 nM'),
  ('CC[C@H]1CC[C@@H](Oc2ccc3ccc([C@H](C)N[C@H]4CC[C@@H](C(=O)O)CC4)cc3c2C(F)(F)F)CC1 [Example 135a]', 'Human ATX protein (Homo sapiens)', 'IC50', '≤ 100 nM'),
  ('CC(N[C@@H]1C[C@H](C(=O)O)C1(C)C)c1ccc2ccc(O[C@H]3CC[C@@H](C)CC3)c(C(F)(F)F)c2c1 (some centres unmarked)', 'Human ATX protein (Homo sapiens)', 'IC50', '≤ 100 nM'),
  ('CC[C@H]1CC[C@@H](Oc2ccc3ccc([C@H](C)N[C@H]4C[C@H](C(=O)O)C4(C)C)cc3c2C(F)(F)F)CC1 [Example 118a]', 'Human ATX protein (Homo sapiens)', 'IC50', '≤ 500 nM'),
  ('CC[C@H]1CC[C@@H](Oc2ccc3ccc(C(C)N4CCC[C@H](CC(=O)O)C4)cc3c2C(F)(F)F)CC1 (some centres unmarked)', 'Human ATX protein (Homo sapiens)', 'IC50', '≤ 250 nM'),
  ('CC[C@H]1CC[C@@H](Oc2ccc3ccc(CN4CCC(C(=O)O)CC4)cc3c2C(F)(F)F)CC1', 'Human ATX protein (Homo sapiens)', 'IC50', '≤ 500 nM'),
  ('CC(N[C@H]1CC[C@@H](C(=O)O)CC1)c1ccc2ccc(O[C@H]3CC[C@@H](C(F)(F)F)CC3)c(C(F)(F)F)c2c1 (some centres unmarked)', 'Human ATX protein (Homo sapiens)', 'IC50', '≤ 100 nM'),
  ('CCC(c1ccc2ccc(O[C@H]3CC[C@@H](CC)CC3)c(C(F)(F)F)c2c1)N1CCC[C@H](CC(=O)O)C1 (some centres unmarked)', 'Human ATX protein (Homo sapiens)', 'IC50', '≤ 250 nM'),
  ('O=C(O)C[C@H]1CCCN(Cc2ccc3ccc(O[C@H]4CC[C@@H](C(F)(F)F)CC4)c(C(F)(F)F)c3c2)C1', 'Human ATX protein (Homo sapiens)', 'IC50', '≤ 100 nM'),
  ('CCC(N[C@H]1CC[C@@H](C(=O)O)CC1)c1ccc2ccc(O[C@H]3CC[C@@H](C)CC3)c(C(F)(F)F)c2c1 (some centres unmarked)', 'Human ATX protein (Homo sapiens)', 'IC50', '≤ 250 nM'),
  ('CC(C)(C)[C@H]1CC[C@H](Nc2cc3cc(C(=O)N[C@H]4CC[C@H](C(=O)O)CC4)ccc3cn2)CC1', 'Human ATX protein (Homo sapiens)', 'IC50', '≤ 100 nM'),
  ('CC1(C)C(NCc2ccc3ccc(O[C@H]4CC[C@@H](C)CC4)c(C(F)(F)F)c3c2)CC1C(=O)O (some centres unmarked)', 'Human ATX protein (Homo sapiens)', 'IC50', '≤ 250 nM');
